Tested on: Listeria monocytogenes 10403S;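 note: End-point A600 read in BHI broth at 37 °C with 2% DMSO, inhibition computed as (1 − OD with compound plus ceftriaxone ÷ OD with ceftriaxone only) × 100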
Experimental Protocol: growth inhibition relative to ceftriaxone-alone control; higher = stronger potentiation of ceftriaxone growth inhibition
Test Context: 10 µM; ceftriaxone 1 ug/ml; 12 h
Test Readout: growth inhibition (%)

> print(dat)
                                    compound            experimental.system  number
 1  FC(F)c1nc2ccccc2n1-c1nc(N2CCOCC2)nc(N2CCOCC2)n1  Listeria monocytogenes 10403S    19.6
 2  COc1cccc(-n2ncc3c(N/N=C/c4ccc(C)cc4)ncnc32)c1  Listeria monocytogenes 10403S   -9.19
 3  CN1CCC(C(=O)Nc2n[nH]c3nc(-c4ccc(O)cc4)c(Br)cc23)CC1  Listeria monocytogenes 10403S   -3.78
 4  CCCN1CCC(Oc2cc(Nc3nc(Nc4cccc(F)c4C(N)=O)c4cc[nH]c4n3)c(OC)cc2Cl)CC1  Listeria monocytogenes 10403S   -13.1
 5  Cc1nc(N)sc1-c1ccnc(Nc2ccc(N3CCOCC3)cc2)n1  Listeria monocytogenes 10403S   -5.25
 6  CN1CCN(c2cccc(Nc3nc4c(-c5ccc(S(C)(=O)=O)cc5)cccn4n3)c2)CC1  Listeria monocytogenes 10403S      69
 7  O=C1NC(=O)C(c2ccccc2[N+](=O)[O-])=C1Nc1ccc(O)c(Cl)c1  Listeria monocytogenes 10403S    52.5
 8  Oc1cc(O)cc(/C=C/c2ccc(O)c(O)c2)c1 [Piceatannol]  Listeria monocytogenes 10403S    29.4
 9       Fc1ccc(-c2c(-c3ccncc3)nc3n2CCS3)cc1  Listeria monocytogenes 10403S   -6.65
10  COC(=O)c1ccc2c(C(=Nc3ccc(N(C)C(=O)CN4CCN(C)CC4)cc3)c3ccccc3)c(O)[nH]c2c1 [BIBF1120 (Vargatef)]  Listeria monocytogenes 10403S    21.6
11  S=C(NCc1ccc2c(c1)OCO2)N1CCN(c2ncnc3c2oc2ccccc23)CC1 [Amuvatinib (MP-470)]  Listeria monocytogenes 10403S    11.7
12  Fc1cccc(COc2ccc(Nc3ncnc4cc(-c5ccc[nH]5)sc34)cc2Cl)c1  Listeria monocytogenes 10403S    7.47
13  CC1=C(C(=O)Nc2ccc3[nH]ncc3c2)C(c2ccc(F)cc2)NC(=O)N1 (centres undefined)  Listeria monocytogenes 10403S    2.29
14  Fc1ccc(-c2ncn(CCCN3CCOCC3)c2-c2ccncc2)cc1  Listeria monocytogenes 10403S    1.14
15  C=CC(=O)N1CCC[C@@H](n2nc(-c3ccc(Oc4ccccc4)cc3)c3c(N)ncnc32)C1  Listeria monocytogenes 10403S    42.1
16  Cc1ccc(NC(=O)c2ccc(CN3CCN(C)CC3)cc2)cc1Nc1nccc(-c2cccnc2)n1 [Imatinib (Gleevec)]  Listeria monocytogenes 10403S    16.3
17  COc1ccc(-c2ccc3ncc4c(c3c2)n(-c2ccc(N3CCNCC3)c(C(F)(F)F)c2)c(=O)n4C)cn1  Listeria monocytogenes 10403S    28.5
18  CN(C)c1cc2c(Nc3ccc4c(cnn4Cc4ccccc4)c3)ncnc2cn1  Listeria monocytogenes 10403S   -7.88
19  O=C(Nc1n[nH]c2nc(-c3ccc(O)cc3)c(Br)cc12)C1CC1  Listeria monocytogenes 10403S   -9.15
